B1: Twister Ribozyme (parent)
chain: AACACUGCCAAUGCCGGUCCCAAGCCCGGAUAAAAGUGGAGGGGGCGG

# Variants of: B1
# PROTOCOL: self-cleavage, relative activity (ratio to wild type); higher = more cleavage; co-transcriptional
Kindly supply the reported self-cleavage values for the records listed here.
One number for each entry.

Consider the reported self-cleavage for these variants:
[
  {
    "RECORD_SEQUENCE": "AAAACUGCCACUGCCGGUCCCAAGCCCGGAUAAAAGUGGAGGGGGCGG",
    "MEASUREMENT_TYPE": "self-cleavage",
    "TEST_VALUE": 0.153
  },
  {
    "RECORD_SEQUENCE": "AACACUGCCAAUGCCGGUCCCAAGCCCGGAUAAAGGUGGACGGGGCGG",
    "MEASUREMENT_TYPE": "self-cleavage",
    "TEST_VALUE": 0.143
  },
  {
    "RECORD_SEQUENCE": "AACACUGCCAAUGCCGGUCCCAAGCCCGGAUAAAAGUUGAUGGGGCGG",
    "MEASUREMENT_TYPE": "self-cleavage",
    "TEST_VALUE": 0.196
  },
  {
    "RECORD_SEQUENCE": "AACACUGCCAAUGCCGUUCCCAAGCCCGGAUAAAAGUGGAGGGUGCGG",
    "MEASUREMENT_TYPE": "self-cleavage",
    "TEST_VALUE": 0.374
  },
  {
    "RECORD_SEQUENCE": "AACACUGCCAAUGCCGGUCCCAAGCCCGGAUAAAAGGGGAGGGGGUGG",
    "MEASUREMENT_TYPE": "self-cleavage",
    "TEST_VALUE": 0.76
  },
  {
    "RECORD_SEQUENCE": "AACACUGCCAAUGCCGGUCCCAAACCCGGAUAAAUGUGGAGGGGGCGG",
    "MEASUREMENT_TYPE": "self-cleavage",
    "TEST_VALUE": 0.113
  },
  {
    "RECORD_SEQUENCE": "AACCCUGCCAAUGCCGGUCCCAAUCCCGGAUAAAAGUGGAGGGGGCGG",
    "MEASUREMENT_TYPE": "self-cleavage",
    "TEST_VALUE": 0.0584
  },
  {
    "RECORD_SEQUENCE": "ACCACUGCCAAUGCCGGUCGCAAGCCCGGAUAAAAGUGGAGGGGGCGG",
    "MEASUREMENT_TYPE": "self-cleavage",
    "TEST_VALUE": 0.0956
  },
  {
    "RECORD_SEQUENCE": "AACACUGCCAAUGCCGGUCCCAAGCCCGGGUAAAAGAGGAGGGGGCGG",
    "MEASUREMENT_TYPE": "self-cleavage",
    "TEST_VALUE": 0.901
  },
  {
    "RECORD_SEQUENCE": "AACACUGCCAAUGCCGGUCCCAGGCCCGGAAAAAAGUGGAGGGGGCGG",
    "MEASUREMENT_TYPE": "self-cleavage",
    "TEST_VALUE": 0.602
  }
]

Each variant below has a recorded value; state its self-cleavage.
1. AAUACUGCCAAUCCCGGUCCCAAGCCCGGAUAAAAGUGGAGGGGGCGG
2. AACACUGCCAAUGCCGGUCCCAGGCCCGGAUAAAAGUGUAGGGGGCGG
3. AACACUGCCAAUGCGGGUUCCAAGCCCGGAUAAAAGUGGAGGGGGCGG
4. AACACUGCCAAUGCCGGUCCCAAGCCCUGAUAAAAGUGGAGGGGGCAG
5. AACAUUGCAAAUGCCGGUCCCAAGCCCGGAUAAAAGUGGAGGGGGCGG
6. AACACUGCCAAUGCCGGUCCCAUGCCCUGAUAAAAGUGGAGGGGGCGG
7. AACACUGCCAAAGCCGGUCCCAAGCCCGGAUAAAAGAGGAGGGGGCGG
8. AACACUGCCUAUGCCGGUCCCAAGCCCGGAUAAACGUGGAGGGGGCGG

Result:
1. 0.168
2. 0.142
3. 0.0895
4. 0.374
5. 0.349
6. 0.279
7. 0.918
8. 1.16

# batch: return self-cleavage for each of the 2 variants below
1. AAGACUGCAAAUGCCGGUCCCAAGCCCGGAUAAAAGUGGAGGGGGCGG
2. GACACUGCCAAUGCCGGUCCCAAGCCCGGAUAAUAGUGGAGGGGGCGG

Result:
1: 0.0934; 2: 0.24

Hey, can you go through the list below and give me self-cleavage for every item?
1. AACACUGCCAAUGCCGGUCCCAAGCCCGGAUAAAAGUGCAAGGGGCGG
2. AACACUGCCAAUGCCGGUCCCAAGUCCGGAUAAAAGUGUAGGGGGCGG

Result:
1. 0.0895
2. 0.158
